Entries annotated with measured Octet response of Ab2
Biological target: T1, Recombinant mouse DDR2 ECD-Fc (R&D systems, Cat. No. 7479-DR-050) (mouse, UniProt Q62371 22-399, biotinylated)
T1 construct: Bought protein; not shown: Fc part of the bought fusion protein, not described
T1 sequence: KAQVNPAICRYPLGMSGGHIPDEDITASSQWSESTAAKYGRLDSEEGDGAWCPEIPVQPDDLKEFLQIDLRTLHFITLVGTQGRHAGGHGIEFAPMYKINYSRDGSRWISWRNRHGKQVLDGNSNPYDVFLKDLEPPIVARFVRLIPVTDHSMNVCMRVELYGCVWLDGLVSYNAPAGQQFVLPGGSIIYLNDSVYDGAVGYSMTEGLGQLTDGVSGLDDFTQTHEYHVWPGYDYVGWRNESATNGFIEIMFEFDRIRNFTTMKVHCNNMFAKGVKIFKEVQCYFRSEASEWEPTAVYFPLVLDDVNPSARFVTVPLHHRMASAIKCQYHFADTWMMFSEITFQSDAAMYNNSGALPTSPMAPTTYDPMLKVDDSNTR
Assay: Octet tandem binning on captured mouse DDR2 ECD-Fc; competitor Ab1 (bound first) DAB0045

| binder | Octet response of Ab2 |
| --- | --- |
| DAB0060 (antibody, V domains shown, Variable regions from immunized rabbits) VH: QSVEESGGRLVTPGTALTLTCTASGFSLSSYDMSWVRQAPGEGLEWIGTIFTEGSTSCASWVKGRFTISRTSTTVDLKITSPTTEDTATYFCVRGTTSNRLWGQGTLVTVSS VL: DVVMTQTPASVEAVVGATVTIRCQASESITNYLSWYQQKPGQPPKVLIYYASTLESGVPSRFKGSGSGTQFTLTISDLECADAATYYCQSNYFSSSYSYGNTFGGGTKVEIK | 0.591 |
| DAB0094 (antibody, V domains shown, Variable regions from immunized rabbits) VH: QSVEESGGRLVTPGTPLTLTCTVSGFSLSSYSVAWVRQAPGKGLEWIGYISYSGSTYYASWVNGRFTISKTSTTVDLKMTSLTASDTATYFCARDPGYSRDLWGQGTLVTVSS VL: DVVMTQTPSSVSEPVGGTVTIKCQASQSIGSYLSWYQQKPGQPPKLLIYRASTLASGVSSRFKGSGSGTEFTLTINGLECADAAIYYCQSSYVGVSHGSFGGGTKVEIK | 1.22 |
| DAB0048 (antibody, V domains shown, Variable regions from immunized rabbits) VH: QSVEESGGRLITPGTPLTLTCTASGFSLSIYYMIWVRQAPGKGLEWIGYIWSGSTTDYASWAKGRFTISKTSTTVDLKITSPTTEDTATYFCARVYAGYGYGSDLWGQGTLVTVSS VL: AAVLTQTPSPVSAAVGGTVSISCQSSQSVYNNNWLAWYQQKPGQPPKLLIYSASTLASGVPSRFKGSGSGTQFTLTISDVQCDDAATYYCAGGYSTNSDKNAFGGGTKVEIK | 1.32 |
